Measured values drawn from paper PMC5402717 for this set.

Measured target: cardiac hERG potassium channel (Homo sapiens)
Sequence (Q12809 whole entry): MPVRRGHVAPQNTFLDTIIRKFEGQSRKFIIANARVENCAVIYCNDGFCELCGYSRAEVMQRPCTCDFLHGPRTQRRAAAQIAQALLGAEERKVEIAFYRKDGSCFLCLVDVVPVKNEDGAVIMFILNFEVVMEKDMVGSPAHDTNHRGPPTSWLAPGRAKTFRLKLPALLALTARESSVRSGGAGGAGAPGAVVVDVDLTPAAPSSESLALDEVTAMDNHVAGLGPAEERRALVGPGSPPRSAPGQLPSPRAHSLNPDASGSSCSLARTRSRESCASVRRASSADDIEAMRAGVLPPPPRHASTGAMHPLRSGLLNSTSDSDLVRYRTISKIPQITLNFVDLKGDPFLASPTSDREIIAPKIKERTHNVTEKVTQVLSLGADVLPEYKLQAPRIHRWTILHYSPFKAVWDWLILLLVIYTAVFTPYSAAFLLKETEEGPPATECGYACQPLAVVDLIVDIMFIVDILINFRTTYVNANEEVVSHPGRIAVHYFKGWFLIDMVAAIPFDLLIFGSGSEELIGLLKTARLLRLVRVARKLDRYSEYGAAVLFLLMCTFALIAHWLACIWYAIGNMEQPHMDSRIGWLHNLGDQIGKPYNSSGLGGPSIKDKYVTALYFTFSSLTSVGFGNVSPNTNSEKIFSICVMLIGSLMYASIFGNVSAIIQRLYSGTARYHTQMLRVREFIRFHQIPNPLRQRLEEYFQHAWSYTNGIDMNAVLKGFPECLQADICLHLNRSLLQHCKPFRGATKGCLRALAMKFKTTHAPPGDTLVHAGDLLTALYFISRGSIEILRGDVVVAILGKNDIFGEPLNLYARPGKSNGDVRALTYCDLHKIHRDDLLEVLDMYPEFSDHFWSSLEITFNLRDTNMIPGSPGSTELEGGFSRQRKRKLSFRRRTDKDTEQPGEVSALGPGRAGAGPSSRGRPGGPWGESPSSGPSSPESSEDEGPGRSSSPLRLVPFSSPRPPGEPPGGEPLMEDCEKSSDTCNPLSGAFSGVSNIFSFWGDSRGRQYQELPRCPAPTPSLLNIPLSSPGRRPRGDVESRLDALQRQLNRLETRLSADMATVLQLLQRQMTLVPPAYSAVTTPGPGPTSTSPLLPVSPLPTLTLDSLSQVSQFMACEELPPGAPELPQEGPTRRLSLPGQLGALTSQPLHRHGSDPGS
Measurement notes: hERG tail current recording
Endpoint label: IC50
Put your answer as a value accompanied by its unit after it.

The molecule CCCOc1ccc(OC)c(F)c1C(=O)c1ccc(C(=O)N[C@@H]2CNC[C@H]2NC(=O)c2ccc3[nH]ncc3c2)cc1 , when measured on cardiac hERG potassium channel (Homo sapiens), yielded IC50 of 4.47 µM

* * *

Measured target: purified bovine PKG-1α (Bos taurus)
Sequence (P00516 1-671): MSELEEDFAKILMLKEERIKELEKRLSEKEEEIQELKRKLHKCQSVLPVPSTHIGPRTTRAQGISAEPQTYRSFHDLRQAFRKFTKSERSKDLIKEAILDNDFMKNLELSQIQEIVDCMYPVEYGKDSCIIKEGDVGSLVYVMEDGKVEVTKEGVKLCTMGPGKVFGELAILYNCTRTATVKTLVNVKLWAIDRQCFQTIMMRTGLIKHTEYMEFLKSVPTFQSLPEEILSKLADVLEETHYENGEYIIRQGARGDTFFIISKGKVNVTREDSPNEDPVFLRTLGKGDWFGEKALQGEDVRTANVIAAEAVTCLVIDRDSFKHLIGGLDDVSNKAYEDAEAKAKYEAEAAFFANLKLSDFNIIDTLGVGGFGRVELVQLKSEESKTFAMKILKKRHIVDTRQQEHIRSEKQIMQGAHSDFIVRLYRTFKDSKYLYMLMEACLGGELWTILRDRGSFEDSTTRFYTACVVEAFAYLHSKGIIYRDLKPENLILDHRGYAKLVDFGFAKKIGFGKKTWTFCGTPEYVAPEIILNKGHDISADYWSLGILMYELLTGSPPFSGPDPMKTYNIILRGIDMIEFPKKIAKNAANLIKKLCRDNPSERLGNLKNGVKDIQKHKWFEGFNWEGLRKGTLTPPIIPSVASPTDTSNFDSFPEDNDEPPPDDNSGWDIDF
Measurement notes: In vitro protein kinase G assay
Assay type: biochemical
Measurement context: IC50 for PKG-1α
Endpoint label: IC50 (nM)
Give the quantity in nM, number only.

IC50 measured on CCCOc1ccc(OC)c(F)c1C(=O)c1ccc(C(=O)N[C@@H]2CNC[C@H]2NC(=O)c2ccc3[nH]ncc3c2)cc1 [N46] = 7.5

* * *

Measured target: recombinant catalytic domain of human PKA (Homo sapiens)
Measurement notes: In vitro cAMP-dependent kinase
Endpoint label: IC50

Sample CCCOc1ccc(OC)c(F)c1C(=O)c1ccc(C(=O)N[C@@H]2CNC[C@H]2NC(=O)c2ccc3[nH]ncc3c2)cc1 [N46] , system: recombinant catalytic domain of human PKA (Homo sapiens). Its IC50 is 5 µM

* * *

Measured target: purified bovine PKG-1α (Bos taurus, UniProt P00516)
Measurement notes: In vitro protein kinase G assay
Type: biochemical
Measurement context: IC50 for PKG-1α, 10 μM ATP, 37°C, 20 minutes
Endpoint label: pIC50
By convention, pIC50 is the negative base-10 log of a molar concentration.

The compound listed as CCCOc1ccc(OC)c(F)c1C(=O)c1ccc(C(=O)N[C@@H]2CNC[C@H]2NC(=O)c2ccc3[nH]ncc3c2)cc1 [N46] shows pIC50 equal to 8.15
